- Measurement Protocol: Pharmacokinetic study in rats after oral administration of Epimedium extract (HPLC-MS/MS of plasma)
- Format: in vivo, Male Sprague-Dawley rats
- Particulars: rat plasma, single oral dose of Epimedium extract 10 g/kg, n = 6, second peak
Classification field: TRUE = Cmax2 at or over 100 ng/mL; FALSE = Cmax2 under 100 ng/mL.

Does COc1ccc(-c2oc3c(CC=C(C)C)c(OC4OC(CO)C(O)C(O)C4O)cc(O)c3c(=O)c2OC2OC(C)C(O)C(O)C2OC2OC(CO)C(O)C(O)C2O)cc1 (centres unmarked) [epimedin A] have a reported Cmax2 of at least 100 ng/mL? FALSE

Does COc1ccc(-c2oc3c(CC=C(C)C)c(O)cc(O)c3c(=O)c2OC2OC(C)C(O)C(O)C2OC2OCC(O)C(O)C2O)cc1 (centres unmarked) [sagittatoside B] have a reported Cmax2 of at least 100 ng/mL? TRUE

Does CC(C)=CCc1c(O)cc(O)c2c(=O)c(OC3OC(C)C(O)C(O)C3O)c(-c3ccc(O)cc3)oc12 (centres unmarked) [baohuoside II] have a reported Cmax2 of at least 100 ng/mL? FALSE

Does COc1ccc(-c2oc3c(CC=C(C)C)c(OC4OC(CO)C(O)C(O)C4O)cc(O)c3c(=O)c2OC2OC(C)C(O)C(O)C2OC2OC(C)C(O)C(O)C2O)cc1 (centres unmarked) [epimedin C] have a reported Cmax2 of at least 100 ng/mL? TRUE

Does COc1ccc(-c2oc3c(CC=C(C)C)c(O)cc(O)c3c(=O)c2O[C@@H]2O[C@@H](C)[C@H](O)[C@@H](O)[C@H]2O)cc1 [baohuoside I] have a reported Cmax2 of at least 100 ng/mL? TRUE

Does COc1ccc(-c2oc3c(CC=C(C)C)c(OC4OC(CO)C(O)C(O)C4O)cc(O)c3c(=O)c2OC2OC(C)C(O)C(O)C2OC2OCC(O)C(O)C2O)cc1 (centres unmarked) [epimedin B] have a reported Cmax2 of at least 100 ng/mL? TRUE

Does COc1ccc(-c2oc3c(CC=C(C)C)c(O)cc(O)c3c(=O)c2O[C@@H]2O[C@@H](C)[C@H](O)[C@@H](O)[C@H]2O[C@@H]2O[C@H](CO)[C@@H](O)[C@H](O)[C@H]2O)cc1 [sagittatoside A] have a reported Cmax2 of at least 100 ng/mL? TRUE

Does COc1ccc2c(c1O)-c1c(O)c(OC)cc3c1[C@H](C2)[N+](C)(C)CC3 have a reported Cmax2 of at least 100 ng/mL? TRUE
